Test system: NCI-H1993
Test: relative viability (nuclei count vs DMSO), 5 days (fraction); higher = more cells survive
Conditions: first compound 0.8 µM
Binarize relative viability at 0.6; below is satisfied, at or above is not satisfied.

INSERT INTO measurements (molecule, experimental_target, group) VALUES
  ('Cc1cnc(-c2cnc(NCCNc3ccc(C#N)cn3)nc2-c2ccc(Cl)cc2Cl)[nH]1 + Cc1cc(Nc2cc(N3CCN(C)CC3)nc(Sc3ccc(NC(=O)C4CC4)cc3)n2)n[nH]1 [Tozasertib] (partner 0.1 µM)', 'NCI-H1993', 'satisfied'),
  ('Cc1cnc(-c2cnc(NCCNc3ccc(C#N)cn3)nc2-c2ccc(Cl)cc2Cl)[nH]1 + Nc1nc2[nH]cc(CCc3ccc(C(=O)N[C@@H](CCC(=O)O)C(=O)O)cc3)c2c(=O)[nH]1 [Pemetrexed] (partner 0.2 µM)', 'NCI-H1993', 'satisfied'),
  ('Cc1cnc(-c2cnc(NCCNc3ccc(C#N)cn3)nc2-c2ccc(Cl)cc2Cl)[nH]1 + CC(C)C[C@H](NC(=O)[C@H](Cc1ccccc1)NC(=O)c1cnccn1)B(O)O [Bortezomib] (partner 0.002 µM)', 'NCI-H1993', 'not satisfied');
